molecular target: pre-existing anti-scFv903 antibodies in human serum H21 (human); test: competition ADA bridging ELISA
OBSERVED PROPERTY: signal change in competition ELISA (% reduction in OD) (%)
Value expressed in %; do not type the unit.

1. scFv 903 (scFv) scFv: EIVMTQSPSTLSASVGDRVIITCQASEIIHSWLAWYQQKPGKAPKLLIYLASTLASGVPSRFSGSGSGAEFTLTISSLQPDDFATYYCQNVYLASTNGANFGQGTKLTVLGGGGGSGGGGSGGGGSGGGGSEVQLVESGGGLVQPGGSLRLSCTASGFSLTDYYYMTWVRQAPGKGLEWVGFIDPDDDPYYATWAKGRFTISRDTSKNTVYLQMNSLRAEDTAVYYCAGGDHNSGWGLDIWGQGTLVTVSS	-85
2. scFv 961 (scFv) scFv: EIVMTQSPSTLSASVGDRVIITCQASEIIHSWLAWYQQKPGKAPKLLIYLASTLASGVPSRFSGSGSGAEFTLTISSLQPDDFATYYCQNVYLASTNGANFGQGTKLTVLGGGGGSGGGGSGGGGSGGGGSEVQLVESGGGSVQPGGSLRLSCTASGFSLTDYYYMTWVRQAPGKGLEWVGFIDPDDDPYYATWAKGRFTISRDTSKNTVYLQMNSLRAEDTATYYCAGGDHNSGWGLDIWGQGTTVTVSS	-81

Next up:
Give its signal change in competition ELISA (% reduction in OD) value. Item: scFv105 (scFv) scFv: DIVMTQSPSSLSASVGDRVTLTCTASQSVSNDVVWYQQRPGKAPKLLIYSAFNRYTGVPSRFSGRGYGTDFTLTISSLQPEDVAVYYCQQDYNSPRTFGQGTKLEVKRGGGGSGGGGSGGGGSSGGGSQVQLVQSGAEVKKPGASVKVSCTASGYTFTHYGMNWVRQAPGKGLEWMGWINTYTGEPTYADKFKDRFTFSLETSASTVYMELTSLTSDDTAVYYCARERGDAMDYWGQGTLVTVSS
-3
